Hey, just so you know, these numbers are from paper PMC11587861.

Answer each item with its documented Kd.
- target: T1, YagL-H6 (Escherichia coli, UniProt P77607 1-232)
- T1 sequence: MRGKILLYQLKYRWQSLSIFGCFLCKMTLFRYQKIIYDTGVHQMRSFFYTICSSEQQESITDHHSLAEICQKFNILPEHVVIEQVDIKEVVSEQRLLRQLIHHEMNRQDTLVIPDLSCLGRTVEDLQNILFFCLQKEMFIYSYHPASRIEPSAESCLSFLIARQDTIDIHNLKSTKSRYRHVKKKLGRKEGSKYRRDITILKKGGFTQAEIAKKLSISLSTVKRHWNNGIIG
- test.description: filter binding; 75 mM Tris-HCl pH 7.5, 0.4 mM spermidine, 0.1 mM MgCl2, 50 mM NaCl, 0.5 mM EDTA, 0.25 mM DTT, 6% glycerol; 10 min at room temperature; 50 fmol RNA in 60 µL, protein 0-10 µM
- setup.conditions: protein: recombinant; label: 5'-32P (printed as [31]P); single strand
Answer shape: numeric part, then the unit.

Q: Can you share its Kd? I mean this binder: CUGCUAGAGAUUUUCCACAU (ssRNA) [21 R-]
Result: 5 µM

Q: Consider the binder AUGUGGAAAAUCUCUAGCAGU (ssRNA) [21 R+] and give its measured Kd.
Result: 4.5 µM
